# protocol-description: BSK_hDFCGF_Proliferation: Cell Proliferation Assessment in the BioMAP Diversity Plus: hDFCGF Assay (AID 2283059);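 note: curves fitted for both rise and fall of signal versus DMSO baseline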
# condition-label: primary human foreskin fibroblasts
Activity calls are given as the source filed them. Rule for the calls: active = hit-call score of the fitted dose curve at least 0.9, where 1 is the maximum; inactive = score below 0.9.

>  <molecule>
Nc1nc(=S)c2[nH]cnc2[nH]1

>  <AC50>
14 µM (active)

$$$$
>  <molecule>
CCN(CC)CCOc1ccc(C(=C(Cl)c2ccccc2)c2ccccc2)cc1

>  <AC50>
0.123 µM (active)

$$$$
>  <molecule>
CCCCCCCC(=O)OC

>  <AC50>
inactive

$$$$
>  <molecule>
CC(COCC(C)OC(=O)c1ccccc1)OC(=O)c1ccccc1 (stereo not given)

>  <AC50>
33.7 µM (active)

$$$$
>  <molecule>
O=Cc1ccccc1C=O

>  <AC50>
inactive

$$$$
>  <molecule>
O=C(N[C@@H](c1ccccc1)[C@@H]1CCCCN1)c1cccc(C(F)(F)F)c1Cl

>  <AC50>
28.7 µM (active)

$$$$
>  <molecule>
CCCC[C@H]1CN(CC2CCOCC2)C(=O)OC12CCN(C1(C)CCN(C(=O)c3c(C)ncnc3C)CC1)CC2

>  <AC50>
inactive

$$$$
>  <molecule>
O=C1OC(c2ccc(O)cc2)(c2ccc(O)cc2)c2ccccc21

>  <AC50>
28 µM (active)

$$$$
>  <molecule>
CC(C)OC(=O)C(C)(C)Oc1ccc(C(=O)c2ccc(Cl)cc2)cc1

>  <AC50>
26.4 µM (active)

$$$$
>  <molecule>
CCc1cc(C2=C(C(=O)O)N(c3ccccc3C(F)(F)F)S(=O)(=O)c3ccccc32)cc2c1OCO2

>  <AC50>
15.5 µM (active)

$$$$
>  <molecule>
C/C=C/c1ccc(OC)cc1

>  <AC50>
inactive

$$$$
>  <molecule>
O=C(O)CC(O)(CC(=O)O)C(=O)O

>  <AC50>
inactive

$$$$
>  <molecule>
CC(=O)OCC(COC(C)=O)OC(C)=O

>  <AC50>
inactive

$$$$
>  <molecule>
Cn1cnc2c1c(=O)[nH]c(=O)n2C

>  <AC50>
inactive

$$$$
>  <molecule>
O=NO

>  <AC50>
inactive

$$$$
>  <molecule>
NC=O

>  <AC50>
19.2 µM (active)

$$$$
>  <molecule>
CC(C)COC(=O)CCCCC(=O)OCC(C)C

>  <AC50>
inactive

$$$$
>  <molecule>
CC(C)c1cccc(C(C)C)c1NC(=O)NS(=O)(=O)c1cc(C(C)(C)O)co1

>  <AC50>
inactive

$$$$
>  <molecule>
OCC(O)CO

>  <AC50>
inactive

$$$$
>  <molecule>
COC(=O)CCCC(=O)OC

>  <AC50>
inactive

$$$$
>  <molecule>
Oc1ccc(O)cc1

>  <AC50>
0.465 µM (active)

$$$$
>  <molecule>
NC1CCCCC1

>  <AC50>
inactive

$$$$
>  <molecule>
Cc1cc(SC2=C(O)C[C@@](CCc3ccc(N)cc3)(C(C)C)OC2=O)c(C(C)(C)C)cc1CO

>  <AC50>
inactive

$$$$
>  <molecule>
NCCOCCOCCN

>  <AC50>
14.6 µM (active)

$$$$
>  <molecule>
CCCC(=O)O

>  <AC50>
inactive

$$$$
>  <molecule>
Cc1c(C)c2c(c(C)c1O)CCC(C)(COc1ccc(CC3SC(=O)NC3=O)cc1)O2 (stereo not given)

>  <AC50>
6.8 µM (active)

$$$$
>  <molecule>
COc1ccc(C(=O)Nc2nc3ccccc3c(NCc3ccccc3)c2C#N)cc1

>  <AC50>
5.53 µM (active)

$$$$
>  <molecule>
CC(C)(C)c1ccccc1

>  <AC50>
inactive

$$$$
>  <molecule>
Cc1ccc(-c2cc(C(F)(F)F)nn2-c2ccc(S(N)(=O)=O)cc2)cc1

>  <AC50>
inactive

$$$$
>  <molecule>
CN(C)C(=O)NC1(c2ccccc2)CCN(CC[C@@]2(c3ccc(F)c(F)c3)CN(C(=O)c3ccccc3)CCO2)CC1

>  <AC50>
14.2 µM (active)

$$$$
>  <molecule>
CC(C)NCC(O)c1ccc(O)c(O)c1 (stereo not given)

>  <AC50>
26.4 µM (active)

$$$$
>  <molecule>
c1ccc2occc2c1

>  <AC50>
inactive

$$$$
>  <molecule>
S=c1[nH]c2ccccc2s1

>  <AC50>
inactive

$$$$
>  <molecule>
Cc1ccc(C(C)(C)C)c(O)c1

>  <AC50>
inactive

$$$$
>  <molecule>
CCCCCCC(C=O)=Cc1ccccc1

>  <AC50>
28.9 µM (active)

$$$$
>  <molecule>
CO[C@@H]1COCC[C@@H]1N[C@@H]1CC[C@@](C(=O)N2CCc3ncc(C(F)(F)F)cc3C2)(C(C)C)C1

>  <AC50>
inactive

$$$$
>  <molecule>
CCCCc1nc2cccnc2n1Cc1ccc(-c2ccccc2-c2nnn[nH]2)cc1

>  <AC50>
18.7 µM (active)

$$$$
>  <molecule>
CC1=C(C)S(=O)(=O)CCS1(=O)=O

>  <AC50>
inactive

$$$$
>  <molecule>
CC(=O)O[C@]1(C(C)=O)CC[C@H]2[C@@H]3C=C(Cl)C4=CC(=O)[C@@H]5C[C@@H]5[C@]4(C)[C@H]3CC[C@@]21C

>  <AC50>
17 µM (active)

$$$$
>  <molecule>
CC(C)(O)c1ccc(CNC(=O)c2cccnc2Oc2ccc(F)cc2)cc1

>  <AC50>
inactive

$$$$
